The values you see were collected from the supplement of paper PMC7125110.

B1: glmS ribozyme (parent)
chain: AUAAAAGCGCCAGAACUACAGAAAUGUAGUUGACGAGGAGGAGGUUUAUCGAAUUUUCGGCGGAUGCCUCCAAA

# Variants of: B1
# assay name: self-cleavage kobs at 640 uM GlcN6P; higher = faster cleavage; RNA array
# condition: with glucosamine-6-phosphate
Fewer inactive variants are shown than the library holds.
So basically: self-cleavage kobs at 640 uM GlcN6P at 0.0001 s⁻¹ or higher? That is Satisfied. Lower than 0.0001 s⁻¹? That is Not satisfied.

Textbook exercise: given the entry AUAAAAGCGCCAGAACUACAGAAAUGUAGUUGACGAGGAGAAGGCUUAUCGAAUUUUCGGCGGAUGCCUCCAAA [G41A U45C] , state whether its self-cleavage kobs at 640 uM GlcN6P is greater than or equal to 0.0001 s⁻¹. Satisfied

Textbook exercise: given the entry AUAAAAGCGCCAGAACUACAGAAAUGUAGUUGACGACGAGGCGGUUUAUCGAAUUUUCGGCGGAUGCCUCGAAA [G37C A42C C71G] , state whether its self-cleavage kobs at 640 uM GlcN6P is greater than or equal to 0.0001 s⁻¹. Not satisfied

Textbook exercise: given the entry AUAAAAGCGCCAUAACUACAGAAAUGUAGUUGACGAGGAGGAGGUUUAUGGAAUUUUCGGCGGAUGGCUCCAAA [G13U C50G C67G] , state whether its self-cleavage kobs at 640 uM GlcN6P is greater than or equal to 0.0001 s⁻¹. Satisfied

Textbook exercise: given the entry AUAAAAGCGCCAGAACUACAGAAAUGUAGUUGACGAGGAGGACGUUUAUCGUAUUUUCGGCGGAUGCCUCCAAA [G43C A52U] , state whether its self-cleavage kobs at 640 uM GlcN6P is greater than or equal to 0.0001 s⁻¹. Not satisfied

Textbook exercise: given the entry AUAAAAGCGCCCGCACUACAGAAAUGUAGUUGACGAGGAGGAGGUUUUUCGAAUUUUCGACGGAUGCCUCCAAA [A12C A14C A48U G60A] , state whether its self-cleavage kobs at 640 uM GlcN6P is greater than or equal to 0.0001 s⁻¹. Not satisfied

Textbook exercise: given the entry AUAAAAGCGCCGGAACUACAGAAAUGUAGUUGACGAGGUGGAGGUUUAUCGAAUUUUCGGCGGAUGCCUCCAAA [A12G A39U] , state whether its self-cleavage kobs at 640 uM GlcN6P is greater than or equal to 0.0001 s⁻¹. Not satisfied

Textbook exercise: given the entry AUAAAAGCGCCAGAAUUACAGAAAUGUAGUUGACGAGGAGGAGGUAUAUCGAAUUUUCGGCGGAUGCCUCCAAA [C16U U46A] , state whether its self-cleavage kobs at 640 uM GlcN6P is greater than or equal to 0.0001 s⁻¹. Satisfied

Textbook exercise: given the entry AUAAAAGCGCCAUAACUACAGAAAUGUAGCUGACGAGGAGGAGGUUUAUCGAAUUUUCGGAGGAUGCCUCCAAA [G13U U30C C61A] , state whether its self-cleavage kobs at 640 uM GlcN6P is greater than or equal to 0.0001 s⁻¹. Not satisfied

Textbook exercise: given the entry AUAAAAGCGCCAGAACUACAGAAAUGUAGUUGACGAGGAAGAGGUUUAUCGAAUUAUCGGCGGAUGCCUCCAAA [G40A U56A] , state whether its self-cleavage kobs at 640 uM GlcN6P is greater than or equal to 0.0001 s⁻¹. Satisfied

Textbook exercise: given the entry AUAAAAGCGCCAGAACUACAGAAAUGUACUUGACGAGGAGGAGGUUUAUCGAGUUUUCGGCGGAUGCAUCCAAA [G29C A53G C68A] , state whether its self-cleavage kobs at 640 uM GlcN6P is greater than or equal to 0.0001 s⁻¹. Satisfied

Textbook exercise: given the entry AUAAAAGCGCCAGAACUACAGAAAUGUAGUUGACGAGAAGGAGCUUUAUCGAAUUUUCGGCGGAUGUCUCAAAA [G38A G44C C67U C71A] , state whether its self-cleavage kobs at 640 uM GlcN6P is greater than or equal to 0.0001 s⁻¹. Not satisfied

Textbook exercise: given the entry AUAAAAGCGCCAGGACUACAGAAAUGUAGUUGACGAGGAGGAUGUUUAUCGAAUUUUCGGCGGAUGCCUCCAAA [A14G G43U] , state whether its self-cleavage kobs at 640 uM GlcN6P is greater than or equal to 0.0001 s⁻¹. Not satisfied

Textbook exercise: given the entry AUAAAAGCGCCAGAACUACAGAAAUGUAGGUGUCGAGGAGGAGGUUUAUCGAAUUUUCGACGGAUGCCUCCAAA [U30G A33U G60A] , state whether its self-cleavage kobs at 640 uM GlcN6P is greater than or equal to 0.0001 s⁻¹. Not satisfied

Textbook exercise: given the entry AUAAAAGCGCCAGAACUACAGAAAUGUAGUCGACGAGGAGGAGGUUUAUCGAUUUUUCGGCGGAUGUCUCCAAA [U31C A53U C67U] , state whether its self-cleavage kobs at 640 uM GlcN6P is greater than or equal to 0.0001 s⁻¹. Satisfied

Textbook exercise: given the entry AUAAAAGCGCCAGAACUACAGAAAUGUAGUUGUCGAGGAGGAGGUUUAUCGAAUUUUCGGUGGAUGCCUCCAAA [A33U C61U] , state whether its self-cleavage kobs at 640 uM GlcN6P is greater than or equal to 0.0001 s⁻¹. Not satisfied

Textbook exercise: given the entry AUAAAAGCGCCAGAACUACAGAAAUGUAGUUGACGAGGAGGAGGUUUAUGGAAUUUUCGGCGGAUGCCUGCAAA [C50G C70G] , state whether its self-cleavage kobs at 640 uM GlcN6P is greater than or equal to 0.0001 s⁻¹. Satisfied

Textbook exercise: given the entry AUAAAAGUGCCAGAACUACAGAAAUGUAGUUGACGAGGAGGAGGUUUAUGUAAUUCUCGGCGGAUGCCUCCAAA [C8U C50G G51U U56C] , state whether its self-cleavage kobs at 640 uM GlcN6P is greater than or equal to 0.0001 s⁻¹. Not satisfied

Textbook exercise: given the entry AUAAAAGCGCCCGAACUACAGAAAUGUAGUUGACGAGGAGGAGGUUUAUCCAAUUUCCGGCGGCUGCCUCCAAA [A12C G51C U57C A64C] , state whether its self-cleavage kobs at 640 uM GlcN6P is greater than or equal to 0.0001 s⁻¹. Not satisfied

Textbook exercise: given the entry AUAAAAGCGCCAGAACUACAGAAAUGUAGUUGACGAGGAAGCGGUUUGUCGAAUUUUCGGCGGAUGCCUCCAAA [G40A A42C A48G] , state whether its self-cleavage kobs at 640 uM GlcN6P is greater than or equal to 0.0001 s⁻¹. Not satisfied

Textbook exercise: given the entry AUAAAAGCGCCAGAACUACAGAAAUGUAGUUGACGAGGAGGAGGUUUAUCAAACGUUCGGCGGAUGCCUCCAAA [G51A U54C U55G] , state whether its self-cleavage kobs at 640 uM GlcN6P is greater than or equal to 0.0001 s⁻¹. Not satisfied

Textbook exercise: given the entry AUAAAAGCGCCAGAACUACAGAAAUGUAGUUGACGAGGAGGAGGUUUGUCGAAUUUUCGGCGGAUGCGUCCAAA [A48G C68G] , state whether its self-cleavage kobs at 640 uM GlcN6P is greater than or equal to 0.0001 s⁻¹. Not satisfied

Textbook exercise: given the entry AUAAAAGCGCCAGAACUACAGAAAUGUAGUUGACUAGGUGGAGGUUUAUCGAAUUUUCGGCGGAUGCCUCCAAA [G35U A39U] , state whether its self-cleavage kobs at 640 uM GlcN6P is greater than or equal to 0.0001 s⁻¹. Not satisfied

Textbook exercise: given the entry AUAAAAGCGCCAGAACUACAGAAAUGUAGUUGACGAGCAGGAAGUUUAUCGAAUUUUCGGCGGAUGCCUCCAAA [G38C G43A] , state whether its self-cleavage kobs at 640 uM GlcN6P is greater than or equal to 0.0001 s⁻¹. Not satisfied

Textbook exercise: given the entry AUAAAAGCGCCUGAACUACAGAAAUGUACUUGACGAGGAGGAGGUUUAUCGAAUUUUCGGCGGAUGCCUCCAAA [A12U G29C] , state whether its self-cleavage kobs at 640 uM GlcN6P is greater than or equal to 0.0001 s⁻¹. Satisfied

Textbook exercise: given the entry AUAAAAGCGCCAGAACUACAGAAAUGUAGUCUACGAGGAGGAGGUUUAUCGAAUUUUCGGCGGAUGCCUCCAAA [U31C G32U] , state whether its self-cleavage kobs at 640 uM GlcN6P is greater than or equal to 0.0001 s⁻¹. Satisfied

Textbook exercise: given the entry AUAAAAGCGCCCGAACUACAGAAAUGUAGUUGACGAGGAGGUGGUUUAUCGAAUUUUCGGCGGGUGCCUCCAAA [A12C A42U A64G] , state whether its self-cleavage kobs at 640 uM GlcN6P is greater than or equal to 0.0001 s⁻¹. Not satisfied

Textbook exercise: given the entry AUAAAAGCGCCGGAACUACAGAAAUGUAGUUGACGAGGAGGAAGUGUAUCGAAUUUUCGGCGGAUGCCGCCAAA [A12G G43A U46G U69G] , state whether its self-cleavage kobs at 640 uM GlcN6P is greater than or equal to 0.0001 s⁻¹. Not satisfied

Textbook exercise: given the entry AUAAAAGCGCUAGAAGUACAGAAAUGUAGUUGACGAGGAGGAGGUUUAUCGAAUUUUCGGCGGAUGCCUCCAAA [C11U C16G] , state whether its self-cleavage kobs at 640 uM GlcN6P is greater than or equal to 0.0001 s⁻¹. Satisfied

Textbook exercise: given the entry AUAAAAGCGCCUGAACUACAGAAAUGUAGUUGACGAGGAGGAGGUUUCUCGAAUUUUAGGCGGAUGCCUCCAAA [A12U A48C C58A] , state whether its self-cleavage kobs at 640 uM GlcN6P is greater than or equal to 0.0001 s⁻¹. Not satisfied

Textbook exercise: given the entry AUAAAAGCGCCUGAACUACAGAAAUGUAGUUGACGAGGUGGAGGUUUAUCGAAUUUUCGGCGGAUGCCUCCAAA [A12U A39U] , state whether its self-cleavage kobs at 640 uM GlcN6P is greater than or equal to 0.0001 s⁻¹. Satisfied

Textbook exercise: given the entry AUAAAAGCGCCAGAACUACAGAAAUGUAGUUGACGAGGAAGAGGUUUAUCGAAUUUUCGGCUGAUGCCUCCAAA [G40A G62U] , state whether its self-cleavage kobs at 640 uM GlcN6P is greater than or equal to 0.0001 s⁻¹. Not satisfied

Textbook exercise: given the entry AUAAAAGCGCCACGACUACAGAAAUGUAGUUGACGAGGAGGGGGUUUAUCGAAUUUUCGGCGGAUGCCUCCAAA [G13C A14G A42G] , state whether its self-cleavage kobs at 640 uM GlcN6P is greater than or equal to 0.0001 s⁻¹. Satisfied

Textbook exercise: given the entry AUAAAAACUCCAUAACUACAGAAAUGUAGUUGACGAGGAGGAGGUUUCUCGAAUUUUCGGCGGAUGCCUCCAAA [G7A G9U G13U A48C] , state whether its self-cleavage kobs at 640 uM GlcN6P is greater than or equal to 0.0001 s⁻¹. Not satisfied

Textbook exercise: given the entry AUAAAAGCGCCUGAACUACAGAAAUGUAGUUGACGAGGAGGAGGUUUAUAGAAUUUUCGGCGGAUGCCUCCAAA [A12U C50A] , state whether its self-cleavage kobs at 640 uM GlcN6P is greater than or equal to 0.0001 s⁻¹. Not satisfied

Textbook exercise: given the entry AUAAAAGCGCCAGAACUACAGAAAUGUAGUUGACGGCGAGGAGGUCUAUCGAAUUUUCGGCGGAUGCCUCCAAA [A36G G37C U46C] , state whether its self-cleavage kobs at 640 uM GlcN6P is greater than or equal to 0.0001 s⁻¹. Not satisfied
